Assay: yeast display, Sf9 membrane polyspecificity reagent, FACS + sequencing; frameworks hold sequencing errors
VALUE_KIND: polyreactivity (PSR sort gate)

Consider the reported polyreactivity (PSR sort gate) for these sequences:
QVQLVESGGGLVQAGGSLRISCAASGSNFASYAMGWYRQAPGKERELVSVITSGGRTYYADSVKGRFTISRDNAKNTVYLQMNSLKPEDTAVYYCKAYLFFLNRVWSFDYWGQGTQVTVSS: high polyreactivity
QVQLVESGGGLVQAGGSLRLSCAASGRTFGAYAMGWYRQAPGTERELVAAISSSGGSTYYADSVKGRFTISRDNAKNTVYLQMNSLKPEDTAVYYCAKGWHRGVGFGYWGQGTQVTVSS: high polyreactivity
QEQLQESGGGLVKAGGSLRLSCAASGNISPRDAMGWYRQAPGEERDLVASNAYSAITYYADGVKGRYTISRDNAKNTVYVQMNSLKPEDTDVYYCEFYQFTYPVFPAYWGQGTQVTVSS: low polyreactivity
QVQLVESGGGLVQAGGSLRLSCAASGRIFTPYAMGWYRKAPGKERELGAVIRDGSTYYADSVKGRFTISRDNAKNTVYLQMNRLKPEDTAVYYCAAVNYYDQYGDYYWGQGTQVTVSS: low polyreactivity

polyreactivity (PSR sort gate) reading for QVQLVESGGGLVQAGGSLRLSCAASGFTFYHYAMGWYRQAPGTERELVASITRSGASTYYADSVKGRFTSSRDNAKNTVYLQMNSLKPEDTAVYYCNKVRYTSSIWTYYYWGQGTQVTVSS : high polyreactivity

Reported polyreactivity (PSR sort gate) of QVQLVESGGGLVKAGGSLRLSCAASGRTFGNYAMGWYRQAPGKERELVASMNTGGSTSYADSVKGRFTISRDNAKNTVYLQMNSLKPEDTAVYYCARSFFWYRLHDYWGQGTQVTVSS : low polyreactivity

Quick note, polyreactivity (PSR sort gate) for QVQLVESGGGLVQAGGSLRLSCAASGRIFSFNAMGWYRPAPGKERELVATISWNGDSTYADSVKGRFTISRDNAKNTVYLQMNSLKPEDTAVYYCAVDVPPWDYDYWGQGTQVTVSS landed at low polyreactivity

Quick note, polyreactivity (PSR sort gate) for QVQLVESGGGLVQAGGSLRLSCAASGFTFDYNAMGWYRQAPGKDRELVAVISSSGSRTYYADSVKGRFTISRDNAKNTVYLQMNSLKPEDTAVYYCNSGRTYRRLGDYWGQGTQVTVSS landed at high polyreactivity
